# Method notes: amyloid nucleation score (Sup35N fusion, yeast selection) (log enrichment); library NNK2; higher = more nucleation; inactive = no reads after selection;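 further: zero at mode of non-aggregating sequences after 7 days selection at 30°C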
Form field: amyloid nucleation score (one value per entry).
Number only, please.

Solved cases (8 shown):
RAVLFAVVKQM
0.874
ISRGRRYRTPVEILGGHMRH
0.917
NGNRSHLELRCGWMSWCDRA
-0.318
RDVLTDNQNAIRLLRGVSAY
0.298
RSSLMYARIHCGEVRRNFLC
0.177
FLLRHSSCEVIGC
0.665
KIRFIPTPKYHEIYMNAAIG
-1.7
SCDRIRMCCSWCQV
3.54

Task: Need amyloid nucleation score, item `YIKFDGSTWKGVVFYYEMWE`
Result: -1.12

Task: `YITRFLPQVTVWQRVFCCSY` ?
Result: 7.45

Task: Moving on to `MGSGSIFT`
Result: 0.287

Task: Follow-up item: `YNSVVADKWCSFSK`
Result: 0.155

Task: // query: `SLMDLDFPLTSR`
Result: -0.334

Task: Can you check `WALSHYVCNTYYSNHSVSNT` next?
Result: 5.57
